assay.method.text: protein stability index of a GFP-peptide fusion (GPS, HEK-293T) (PSI 1-6); higher = more stable;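 also: 24-mer peptide tiles fused after GFP, lentivirally expressed, FACS-sorted into six equal bins by GFP/DsRed ratio, decoded by Illumina sequencing, PSI is the read-weighted mean bin number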
condition.info: treatment: MLN4924 1 uM, 8 h; c terminus: a fixed tail appended
# key: entry, value: protein stability index
The reply should be a number, written without any unit.

> print(dat)
                   biopolymer.sequence  value.reported
1    RSLENYHFVDEHGKDQGINIRQKV [CLINT1]            3.75
2    RQFEFSVDSFQIILDSLLFFYDCS [TENT5C]            3.04
3      RNYLNYGEEGAPGKWQQQGDLQDT [CHGB]            4.94
4    TIEDEDVKARKQEIIKVTEQLIEA [CAMK2D]            5.26
5  LKTSNLPEELRKVFITYSMDTAME [TRAF3IP2]            2.43

Task: Any idea what protein stability index was measured for EKVEVQLPELFHKIGVGAMTWSPL [KCNAB2] ?
Output: 2.51

Task: Can you look up the measured protein stability index of EDIDTSMYDNELWAPASEGLKPGP [SERTAD1] for me?
Output: 4.76

Source: the supplement of paper PMC10567573
